assay-details: Intrinsic clearance in rat liver microsomes assessed per mg protein at 1 uM by UPLC-MS analysis
Format: ADME, microsome
experimental-parameters: read-out: CLH
quantity: microsomal CLint at 1 µM (µL/min/mg)
Numbers only; they are read as µL/min/mg.

The molecule listed as c1cc(C2CCC3(CC2)OOC2(OO3)C3CC4CC(C3)CC2C4)ccc1CN1CCOCC1 (stereo unspecified) shows microsomal CLint at 1 µM equal to 118

----------
assay-details: Drug degradation in human liver microsomes assessed as compound half life at 5 uM by UPLC-MS method
Assay type: ADME, microsome
quantity: half-life at 5 µM (min)
Answer with a number only, understood to be in min.

response.value for c1cc(C2CCC3(CC2)OOC2(OO3)C3CC4CC(C3)CC2C4)ccc1CN1CCOCC1 (stereo unspecified) (field: half-life at 5 µM) = 43

----------
assay-details: AUC (0 to t) in humanized NOD.Cg-Prkdcscid Il2rgtm1Wjl/SzJ mouse infected with Plasmodium falciparum Pf3D70087/N9 at 30 mg/kg, po administered as single dose by LC-MS/MS analysis
Type: ADME, organism-based
experimental-parameters: in vivo
quantity: AUC(0-t)

response.value for c1cc(C2CCC3(CC2)OOC2(OO3)C3CC4CC(C3)CC2C4)ccc1CN1CCOCC1 (stereo unspecified) (field: AUC(0-t)) = 0.94 µg·h/mL

----------
assay-details: Intrinsic clearance in mouse liver microsomes assessed per mg protein at 5 uM by UPLC-MS analysis
Type: ADME, microsome
experimental-parameters: read-out: CLH
quantity: microsomal CLint at 5 µM (µL/min/mg)
Your answer should be a plain number; it is taken to be in µL/min/mg.

Measured microsomal CLint at 5 µM, c1cc(C2CCC3(CC2)OOC2(OO3)C3CC4CC(C3)CC2C4)ccc1CN1CCOCC1 (stereo unspecified) : 20

----------
assay-details: Solubility in PH 7.4 PBS buffer after 4 hrs by HPLC analysis
Type: physicochemical
quantity: solubility at 4 h

Lab book: solubility at 4 h of CS(=O)(=O)O.c1cc(C2CCC3(CC2)OOC2(OO3)C3CC4CC(C3)CC2C4)ccc1CN1CCOCC1 (stereo unspecified) noted as < 0.1 µg/mL

----------
assay-details: Intrinsic clearance in mouse liver microsomes assessed per mg protein at 1 uM by UPLC-MS analysis
Format: ADME, microsome
experimental-parameters: read-out: CLH
quantity: microsomal CLint at 1 µM (µL/min/mg)
Write the value in µL/min/mg as a bare number.

Just so you know, measured microsomal CLint at 1 µM for c1cc(C2CCC3(CC2)OOC2(OO3)C3CC4CC(C3)CC2C4)ccc1CN1CCOCC1 (stereo unspecified) came out at 37

----------
assay-details: Solubility in pH 6.5 FaSSIF after 4 hrs by HPLC analysis
Assay type: physicochemical
Would you mind telling me the reported solubility at 4 h of each entry?
Reply with just the number (in µg/mL).

// solubility at 4 h value for CS(=O)(=O)O.c1cc(C2CCC3(CC2)OOC2(OO3)C3CC4CC(C3)CC2C4)ccc1CN1CCOCC1 (configuration not stated) : 18

The measured solubility at 4 h associated with CS(=O)(=O)O.c1cc(C2CCC3(CC2)OOC2(O3)C3CC4CC(C3)CC2C4)ccc1OCCN1CCOCC1 (configuration not stated) reads 120

----------
system-tested: Cytochrome P450 3A4 (Homo sapiens)
Sequence (P08684 whole entry): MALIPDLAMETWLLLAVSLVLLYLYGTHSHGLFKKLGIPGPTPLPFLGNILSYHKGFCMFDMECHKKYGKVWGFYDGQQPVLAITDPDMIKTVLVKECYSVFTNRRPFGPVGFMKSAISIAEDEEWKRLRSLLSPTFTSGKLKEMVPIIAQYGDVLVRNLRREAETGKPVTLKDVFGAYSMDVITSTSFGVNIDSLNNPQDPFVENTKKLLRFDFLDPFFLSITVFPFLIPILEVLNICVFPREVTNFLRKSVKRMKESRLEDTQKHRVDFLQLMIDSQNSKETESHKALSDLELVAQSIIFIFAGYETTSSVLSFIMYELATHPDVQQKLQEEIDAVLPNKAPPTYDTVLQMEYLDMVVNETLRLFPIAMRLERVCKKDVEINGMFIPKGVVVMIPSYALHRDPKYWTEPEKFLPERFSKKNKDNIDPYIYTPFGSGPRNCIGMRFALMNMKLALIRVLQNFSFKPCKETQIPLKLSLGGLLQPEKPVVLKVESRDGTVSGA
assay-details: Inhibition of CYP3A4 in human liver microsomes assessed as midazolam 1'-hydroxylation after 4 to 40 mins in presence of NADPH by LCMS analysis
Format: ADME
quantity: IC50

Per the records, this compound ( c1cc(C2CCC3(CC2)OOC2(OO3)C3CC4CC(C3)CC2C4)ccc1CN1CCOCC1 (stereo unspecified) ) has IC50 equal to > 20 µM
